Kindly supply the reported IC50 values for the records listed here.
Biological target: KRAS G12S (Homo sapiens (Human), UniProt P01116+P62937, G12S)
Sequence (P01116 other isoform, or with tags, fused parts or gaps G12S): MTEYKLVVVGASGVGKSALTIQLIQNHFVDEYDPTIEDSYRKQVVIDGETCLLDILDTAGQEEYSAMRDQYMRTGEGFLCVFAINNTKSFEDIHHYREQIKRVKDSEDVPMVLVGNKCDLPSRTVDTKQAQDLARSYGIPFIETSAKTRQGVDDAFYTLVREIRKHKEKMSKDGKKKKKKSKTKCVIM
Sequence (P62937 whole entry): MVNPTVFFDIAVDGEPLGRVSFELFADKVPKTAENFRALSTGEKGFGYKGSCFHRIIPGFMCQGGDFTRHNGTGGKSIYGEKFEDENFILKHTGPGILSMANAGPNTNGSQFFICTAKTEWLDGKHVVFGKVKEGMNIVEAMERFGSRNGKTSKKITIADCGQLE
Assay: Ras-Raf disruption/FRET/MOA assay (BRAF RBD, Cyclophilin A)
Assay type: biochemical
Details: read-out: KRAS G12S FRET IC50

Prompt line: Quick one: IC50 of CCn1c(-c2cccnc2[C@H](C)OC)c2c3cc(ccc31)-c1cc(c3cn[nH]c3c1)C[C@H](NC(=O)[C@H](C(C)C)N(C)C(C)=O)C(=O)N1CCC[C@H](N1)C(=O)OCC(C)(C)C2 [Compound A388] ?
Response line: 1000 to 10000 nM

Kindly consider the entry below.
Prompt line: Quick check: IC50 of CCn1c(-c2cccnc2[C@H](C)OC)c2c3cc(ccc31)-c1cc(O)cc(c1)C[C@H](NC(=O)[C@H](C(C)C)N(C)C(=O)[C@@H]1CCCC[C@@H]1N)C(=O)N1CCC[C@H](N1)C(=O)OCC(C)(C)C2 [Compound A395] ?
Response line: 10 to 100 nM
